Target: Acetylcholinesterase (Electrophorus electricus)
Assay: Inhibition of electric eel AChE at 100 uM using acetylthiocholine iodide as substrate by Ellman's method
Activity calls are given as the source filed them. The rule behind the calls is not given here.
Recorded Endpoint: inhibition

INSERT INTO assay_data (input_smiles, result_value) VALUES
  ('COc1ccc(-c2cc3ccccc3o2)cc1', 'inactive'),
  ('c1ccc(-c2cc3ccccc3o2)cc1', 'inactive'),
  ('Brc1cccc2cc(-c3ccccc3)oc12', '4%'),
  ('Cc1ccc2oc(-c3ccc(O)cc3)cc2c1', '4.8%'),
  ('Oc1ccc(-c2cc3ccccc3o2)cc1', 'inactive');

* * *

Assay: Antioxidant activity assessed as ABTS free radical scavenging activity after 1 min by spectrophotometry
pIC50: −log10 of the molar value.
Recorded Endpoint: pIC50

INSERT INTO results (input_smiles, result_value) VALUES
  ('Oc1ccc(-c2cc3cccc(Cl)c3o2)cc1', 4.17);

# credit: ChEMBL document CHEMBL3792316
